Quick reference: Kd of the listed items.
Biological target: T1, Human GDF15 Fc (human) (UniProt Q99988)
T1 sequence (chain, biotinylated (EZ-Link Sulfo-NHS-Biotinylation Kit) where printed as biotinylated): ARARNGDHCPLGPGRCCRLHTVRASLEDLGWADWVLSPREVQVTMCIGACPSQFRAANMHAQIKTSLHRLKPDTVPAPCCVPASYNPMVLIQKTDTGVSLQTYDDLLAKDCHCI
Assay: SPR Biacore, Fab monovalent
Give just the number in nM; leave the unit off.

Below, 2 binders whose answers are already recorded.
binder	Kd (nM)
Clone L Fab (Fab, V domains shown) VH: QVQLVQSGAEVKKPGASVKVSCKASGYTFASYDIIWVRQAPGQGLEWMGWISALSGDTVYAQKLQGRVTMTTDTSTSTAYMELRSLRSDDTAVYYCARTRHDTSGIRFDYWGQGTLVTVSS VL: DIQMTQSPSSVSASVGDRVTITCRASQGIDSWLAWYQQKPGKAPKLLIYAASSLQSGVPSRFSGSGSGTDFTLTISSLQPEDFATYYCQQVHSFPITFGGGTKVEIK	0.144
Clone P Fab (Fab, V domains shown) VH: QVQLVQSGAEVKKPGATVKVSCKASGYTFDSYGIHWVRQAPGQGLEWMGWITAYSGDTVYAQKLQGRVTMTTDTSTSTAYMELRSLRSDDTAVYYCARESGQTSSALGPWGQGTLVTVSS VL: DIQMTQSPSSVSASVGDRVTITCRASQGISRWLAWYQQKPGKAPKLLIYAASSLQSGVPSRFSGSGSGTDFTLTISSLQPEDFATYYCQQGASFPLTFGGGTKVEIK	0.126

Which measured Kd value corresponds to Clone K Fab (Fab, V domains shown) VH: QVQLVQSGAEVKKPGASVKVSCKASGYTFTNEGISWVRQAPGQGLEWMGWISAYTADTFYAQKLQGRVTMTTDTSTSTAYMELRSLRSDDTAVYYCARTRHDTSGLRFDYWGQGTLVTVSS VL: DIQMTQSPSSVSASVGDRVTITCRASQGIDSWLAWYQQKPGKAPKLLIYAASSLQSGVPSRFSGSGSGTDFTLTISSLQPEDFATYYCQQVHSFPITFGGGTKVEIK ?
0.23
